Target: mouse Tas2r108 (Mus musculus, UniProt Q9JKT3)
Construct: expressed in transfected cells; host or cells: HEK293T-Gα16gust44
Sequence (Q9JKT3 whole entry): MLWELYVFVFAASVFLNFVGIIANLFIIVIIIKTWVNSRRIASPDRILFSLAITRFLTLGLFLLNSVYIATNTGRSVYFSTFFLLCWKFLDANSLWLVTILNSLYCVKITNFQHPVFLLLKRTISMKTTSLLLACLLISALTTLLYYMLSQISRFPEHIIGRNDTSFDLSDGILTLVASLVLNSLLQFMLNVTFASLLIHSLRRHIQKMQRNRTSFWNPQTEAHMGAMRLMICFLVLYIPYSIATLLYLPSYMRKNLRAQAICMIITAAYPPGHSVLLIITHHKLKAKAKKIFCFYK
Experiment: Calcium imaging assay (FLIPR), HEK293T-Gα16gust44 cells transfected with mouse Tas2r108
Format: cell-based
Conditions: Time 293.562 s
Protocol: This set of bile acids was chosen because of their commercial availability in high purities, their diversity within the class of bile acids and their previous detection and quantitation in human blood. Stock solutions were prepared in DMSO. […] Measured data were negative control corrected by subtracting the signal of the mock-transfected cells and exported to Microsoft Excel using the FLIPR software ScreenWorks 4.2. […]
MEASURED_ATTRIBUTE: RLU (RLU)
Write the number in RLU without appending the unit.

Below, 3 compounds whose answers are already recorded.
{"COMPOUND": "C[C@H](CCC(=O)NCC(=O)O)[C@H]1CC[C@H]2[C@@H]3[C@H](O)C[C@@H]4C[C@H](O)CC[C@]4(C)[C@H]3C[C@H](O)[C@]12C [Glycocholic Acid, glycocholic acid]", "MEASURED_ATTRIBUTE": "RLU", "VAL": 149.968}
{"COMPOUND": "C[C@H](CCC(=O)O)[C@H]1CC[C@H]2[C@@H]3[C@H](O)C[C@@H]4C[C@H](O)CC[C@]4(C)[C@H]3C[C@H](O)[C@]12C [Cholic Acid, cholic acid]", "MEASURED_ATTRIBUTE": "RLU", "VAL": 160.558}
{"COMPOUND": "C[C@H](CCC(=O)O)[C@H]1CC[C@H]2[C@@H]3CC[C@@H]4C[C@H](O)CC[C@]4(C)[C@H]3C[C@H](O)[C@]12C [Deoxycholic Acid, deoxycholic acid]", "MEASURED_ATTRIBUTE": "RLU", "VAL": 458.186}

// next entry
INPUT: Name the recorded RLU for C[C@H](CCC(=O)NCCS(=O)(=O)O)[C@H]1CC[C@H]2[C@@H]3[C@H](O)C[C@@H]4C[C@H](O)CC[C@]4(C)[C@H]3C[C@H](O)[C@]12C [Taurocholic Acid, taurocholic acid] .
OUTPUT: 221.03

###

Target: human TAS2R1 (Homo sapiens, UniProt Q9NYW7)
Construct: expressed in transfected cells; host or cells: HEK293T-Gα16gust44
Sequence (Q9NYW7 1-299): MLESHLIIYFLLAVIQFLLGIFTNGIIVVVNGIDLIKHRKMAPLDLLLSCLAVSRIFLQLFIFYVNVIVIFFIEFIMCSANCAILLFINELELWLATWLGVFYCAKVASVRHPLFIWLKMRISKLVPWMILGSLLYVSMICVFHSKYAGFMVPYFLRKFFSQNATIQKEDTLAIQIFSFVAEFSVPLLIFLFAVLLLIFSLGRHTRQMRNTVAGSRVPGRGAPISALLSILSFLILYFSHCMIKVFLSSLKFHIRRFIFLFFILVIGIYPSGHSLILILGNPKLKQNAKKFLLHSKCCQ
Assay: Calcium imaging assay (FLIPR), HEK293T-Gα16gust44 cells transfected with human TAS2R1
Assay type: cell-based
Details: Time 136.781 s
MEASURED_ATTRIBUTE: RLU (RLU)
Quick reminder: number only, in RLU, skip the unit.

// known answers, use as guide
{"SMILES_DATA": "C[C@H](CCC(=O)NCCS(=O)(=O)O)[C@H]1CC[C@H]2[C@@H]3CC[C@@H]4C[C@H](O)CC[C@]4(C)[C@H]3CC[C@]12C", "TGT": "human TAS2R1 (Homo sapiens, UniProt Q9NYW7)", "UNIT_OF_MEASURE": "RLU", "RLU": 395.556}
{"SMILES_DATA": "C[C@H](CCC(=O)O)[C@H]1CC[C@H]2[C@@H]3CC[C@@H]4C[C@H](O)CC[C@]4(C)[C@H]3C[C@H](O)[C@]12C", "TGT": "human TAS2R1 (Homo sapiens, UniProt Q9NYW7)", "UNIT_OF_MEASURE": "RLU", "RLU": 330.764}
{"SMILES_DATA": "C[C@H](CCC(=O)NCCS(=O)(=O)O)[C@H]1CC[C@H]2[C@@H]3[C@H](O)C[C@@H]4C[C@H](O)CC[C@]4(C)[C@H]3C[C@H](O)[C@]12C", "TGT": "human TAS2R1 (Homo sapiens, UniProt Q9NYW7)", "UNIT_OF_MEASURE": "RLU", "RLU": 260.122}

Consider the record given below.
INPUT: For human TAS2R1 (Homo sapiens, UniProt Q9NYW7), provide RLU of C[C@H](CCC(=O)NCC(=O)O)[C@H]1CC[C@H]2[C@@H]3[C@H](O)C[C@@H]4C[C@H](O)CC[C@]4(C)[C@H]3C[C@H](O)[C@]12C please.
OUTPUT: 397.074
